Data provenance is patent US11827701B2.

# tested_on: T1, bacterially produced human IL-6 (Homo sapiens, UniProt P05231)
# T1 construct: His
# protocol_notes: Surface plasmon resonance (Biacore), bacterially produced human IL-6 coated on CM5 chip
# Format: binding
# test_parameters: bact; periplasmic fractions, 29B11 chain shuffled
Entries and their KA values follow.
Write the figure, then the unit, nothing else.

* 55C1a: 29B11 chain shuffled Fab, periplasmic fraction (antibody, V domains shown) VH: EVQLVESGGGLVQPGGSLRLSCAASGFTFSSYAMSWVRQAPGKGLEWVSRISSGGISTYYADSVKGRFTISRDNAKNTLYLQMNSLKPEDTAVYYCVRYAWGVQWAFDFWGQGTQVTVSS VL: ALNFMLTQPPSVSGSPGKTVTISCAGTSSDVGYGNYVSWYQQLPGTAPKLLIYNVNKRASGITDRFSGSKSGNTASLTISGLQSEDEADYYCASYRTGDNAAFGGGTKLTVLG | 7.6e+09 M⁻¹

Then this molecule:
Query: Fill blank: measured KA of the molecule 29B11: antagonistic IL-6-specific Fab clone from immunized llama (antibody, listed as Lama glama, V domains shown) VH: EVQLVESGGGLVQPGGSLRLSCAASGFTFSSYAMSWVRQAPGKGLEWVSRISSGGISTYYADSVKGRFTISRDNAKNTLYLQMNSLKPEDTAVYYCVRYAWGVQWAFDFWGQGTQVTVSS VL: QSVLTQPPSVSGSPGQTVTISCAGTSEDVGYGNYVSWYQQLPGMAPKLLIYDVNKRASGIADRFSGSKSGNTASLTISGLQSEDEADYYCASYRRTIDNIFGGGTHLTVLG is ____.
Response: 1.91e+09 M⁻¹
